# target or test system: IDH2 R140Q (Homo sapiens (Human), UniProt P48735, R140Q)
# Sequence (P48735 40-452 R140Q): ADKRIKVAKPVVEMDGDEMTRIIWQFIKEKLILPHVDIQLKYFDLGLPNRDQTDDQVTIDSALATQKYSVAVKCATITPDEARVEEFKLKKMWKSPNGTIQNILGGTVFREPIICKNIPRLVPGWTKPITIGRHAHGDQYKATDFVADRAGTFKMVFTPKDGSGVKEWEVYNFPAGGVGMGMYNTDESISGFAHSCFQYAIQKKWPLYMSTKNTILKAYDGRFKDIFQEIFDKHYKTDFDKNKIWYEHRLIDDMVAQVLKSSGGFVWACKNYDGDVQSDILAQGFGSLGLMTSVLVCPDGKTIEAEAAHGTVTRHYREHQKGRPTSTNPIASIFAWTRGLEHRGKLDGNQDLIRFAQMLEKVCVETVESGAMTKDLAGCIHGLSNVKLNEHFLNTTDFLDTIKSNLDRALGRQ
# protocol notes: In vitro assay for IDH2m R140Q inhibitors, cofactor depletion assay
# Format: biochemical
# condition set: IDH2 R140Q enzyme
Parameter IC50: see the listing below.

Illustrative cases are given below, each with its answer.
molecule=C[C@@H](Nc1nc(N[C@H](C)C(F)(F)F)nc(-c2cncc(C(F)(F)F)n2)n1)C(F)(F)F target_or_test_system="IDH2 R140Q (Homo sapiens (Human), UniProt P48735, R140Q)" val="< 50 nM"
molecule="Fc1ccc([C@H]2C[C@H](Nc3nc(NC4CCC(F)(F)C4)nc(-c4cccc(C(F)(F)F)n4)n3)C2)cc1 (stereo partly shown)" target_or_test_system="IDH2 R140Q (Homo sapiens (Human), UniProt P48735, R140Q)" val="< 50 nM"
molecule=FC1(F)CC(Nc2nc(NC3CC(F)(F)C3)nc(-c3cccc(OC(F)(F)F)n3)n2)C1 target_or_test_system="IDH2 R140Q (Homo sapiens (Human), UniProt P48735, R140Q)" val="50 to 100 nM"

Next molecule, IC50 to be filled in.
Sure, the documented IC50 for `FC(F)(F)c1cccc(-c2nc(NCC3CC3)nc(NCC3CC3)n2)n1` is < 50 nM
